# system: Shiga toxin 2 (Escherichia coli O157:H7) (UniProt P09385+P09386)
# assay summary: E. coli 0.157:H7 Shiga Toxin SOP - stx2 screening assay
# Format: functional
# Design: scale not given: direction of the effect not stated beside the values
# condition description: 30 µM
measured property: Percent Effect

- molecule: "Cc1ccc(C(=O)N2CCC3(CC2)NC(=O)CC3c2ccccc2)cn1 (stereo unspecified)"
  measured property: "Percent Effect"
  observed result: "-13.9%"
- molecule: "CCn1cnnc1CNC(=O)c1cc(Cl)ccc1O"
  measured property: "Percent Effect"
  observed result: "-19.6%"
- molecule: "COc1cccc(CNC(=O)CN2CCCCC2Cn2cccn2)c1 (stereo unspecified)"
  measured property: "Percent Effect"
  observed result: "20.3%"
- molecule: "COc1ccccc1OCC(=O)NCC(O)(c1ccccc1)C1CC1 (stereo unspecified)"
  measured property: "Percent Effect"
  observed result: "6.19%"
- molecule: "Cc1ccc(N2CCCC(NCc3cscn3)C2)nn1 (stereo unspecified)"
  measured property: "Percent Effect"
  observed result: "15.1%"
- molecule: "O=C(NC1(c2cccc(F)c2)CCOCC1)c1ccccn1"
  measured property: "Percent Effect"
  observed result: "-49.2%"
